Test system: B. infantis M-63
method: Bacterial growth assay (OD600), B. infantis M-63
Assay type: cell-based, Bifidobacterium infantis
experimental-context: 1% carbohydrate in sMRS+cysteine
reported-metric: growth / ability to ferment the carbohydrate (OD600)

INSERT INTO results (molecule, result) VALUES
  ('CC(=O)N[C@H]1[C@H]([C@H](O)[C@H](O)CO)O[C@@](O[C@H]2[C@@H](O)[C@@H](CO)O[C@@H](O[C@H]3[C@H](O)[C@@H](O)C(O)O[C@@H]3CO)[C@@H]2O)(C(=O)O)C[C@@H]1O (stereo partly shown)', 'able to ferment'),
  ('C[C@H](O)[C@@H](O)[C@@H](O)[C@H](O)C=O [L-fucose, L-(−) Fucose]', 'not able to ferment'),
  ('CC(=O)N[C@H]1[C@H]([C@H](O)[C@H](O)CO)O[C@@](OC[C@H]2O[C@@H](O[C@H]3[C@H](O)[C@@H](O)[C@H](O)O[C@@H]3CO)[C@H](O)[C@@H](O)[C@H]2O)(C(=O)O)C[C@@H]1O', 'able to ferment'),
  ('CC(=O)N[C@H]1[C@H]([C@H](O)[C@H](O)CO)OC(O)(C(=O)O)C[C@@H]1O (stereo partly shown)', 'not able to ferment');
